Documented pEC50 across a set of compounds
target.or.system: CFTR in F508del/MF-HBE cells (Homo sapiens, UniProt P13569, DEL508-508)
Construct: human bronchial epithelial (HBE) cells derived from CF subjects heterozygous for F508del and a minimal function CFTR mutation; endogenous in cells
Sequence (P13569 with tags, fused parts or gaps DEL508-508): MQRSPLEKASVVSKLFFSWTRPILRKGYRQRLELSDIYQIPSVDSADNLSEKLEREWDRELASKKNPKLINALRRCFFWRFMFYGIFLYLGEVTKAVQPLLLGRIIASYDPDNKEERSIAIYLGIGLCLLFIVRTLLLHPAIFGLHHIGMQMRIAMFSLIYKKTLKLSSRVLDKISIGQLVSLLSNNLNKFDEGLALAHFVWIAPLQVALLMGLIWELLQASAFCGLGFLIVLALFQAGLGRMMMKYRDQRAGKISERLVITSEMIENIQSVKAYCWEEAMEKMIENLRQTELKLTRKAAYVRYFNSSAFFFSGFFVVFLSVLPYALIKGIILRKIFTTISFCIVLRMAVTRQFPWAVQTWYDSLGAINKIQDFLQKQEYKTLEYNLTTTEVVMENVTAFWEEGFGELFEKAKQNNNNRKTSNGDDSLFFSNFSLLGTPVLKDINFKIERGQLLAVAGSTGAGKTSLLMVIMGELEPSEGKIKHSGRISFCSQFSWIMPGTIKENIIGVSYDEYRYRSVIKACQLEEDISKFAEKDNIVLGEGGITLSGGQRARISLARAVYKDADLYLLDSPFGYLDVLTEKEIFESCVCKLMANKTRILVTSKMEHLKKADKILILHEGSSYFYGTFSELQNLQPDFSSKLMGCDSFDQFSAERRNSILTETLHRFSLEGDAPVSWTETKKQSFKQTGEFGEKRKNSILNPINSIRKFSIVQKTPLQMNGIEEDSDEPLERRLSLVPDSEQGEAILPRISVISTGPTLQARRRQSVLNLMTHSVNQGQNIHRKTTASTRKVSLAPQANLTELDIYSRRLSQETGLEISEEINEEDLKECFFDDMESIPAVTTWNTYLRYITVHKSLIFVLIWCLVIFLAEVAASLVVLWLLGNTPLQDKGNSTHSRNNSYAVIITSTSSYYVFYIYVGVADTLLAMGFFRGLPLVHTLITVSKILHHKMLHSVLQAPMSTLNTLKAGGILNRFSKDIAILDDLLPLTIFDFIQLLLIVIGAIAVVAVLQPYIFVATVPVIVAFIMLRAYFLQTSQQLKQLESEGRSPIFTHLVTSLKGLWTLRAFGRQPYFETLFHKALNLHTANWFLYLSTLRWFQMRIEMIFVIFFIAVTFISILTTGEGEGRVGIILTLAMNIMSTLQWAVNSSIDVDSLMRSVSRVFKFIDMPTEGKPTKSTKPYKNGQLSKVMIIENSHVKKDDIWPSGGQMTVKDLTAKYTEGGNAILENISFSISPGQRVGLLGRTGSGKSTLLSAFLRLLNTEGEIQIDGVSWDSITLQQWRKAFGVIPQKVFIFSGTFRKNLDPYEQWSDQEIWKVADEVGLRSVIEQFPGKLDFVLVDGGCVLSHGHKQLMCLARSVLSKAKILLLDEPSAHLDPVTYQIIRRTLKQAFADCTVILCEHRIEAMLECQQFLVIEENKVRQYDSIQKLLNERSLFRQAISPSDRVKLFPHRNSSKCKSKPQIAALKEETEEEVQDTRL
assay.text: Ussing chamber assay of CFTR-mediated short-circuit currents (identification of potentiator compounds)
condition.info: potentiator incubated 18-24 hours at 37° C. in combination with 10 μM corrector, in the presence of 20% human serum, CFTR-mediated ISC
pEC50: −log10 of the molar value.

Worked cases, answers included:
| compound | target.or.system | pEC50 |
| --- | --- | --- |
| Nc1cc(C(F)(F)F)c2nc1-c1nnc(o1)[C@@](O)(C(F)(F)F)CCCCCN(C13CCC(CC1)CC3)C2=O | CFTR in F508del/MF-HBE cells (Homo sapiens, UniProt P13569, DEL508-508) | > 6.30 |
| COC1CCCCc2ccc(F)c(c2)C(O)(C(F)(F)F)C2=NN=C(O2)c2nc1c(C(F)(F)F)cc2N (stereo not shown) [Compound 62] | CFTR in F508del/MF-HBE cells (Homo sapiens, UniProt P13569, DEL508-508) | > 6.30 |
| Nc1cc(C(F)(F)F)c2nc1-c1nnc(o1)C(O)(C(F)(F)F)CCCCN(C1CC(F)(F)C1)C2=O (single isomer, unassigned) [Compound 198] | CFTR in F508del/MF-HBE cells (Homo sapiens, UniProt P13569, DEL508-508) | > 6.30 |
| Nc1cc(C(F)(F)F)c2nc1-c1nnc(o1)[C@@](O)(C(F)(F)F)CCCCCN(CC1CC1)C2=O | CFTR in F508del/MF-HBE cells (Homo sapiens, UniProt P13569, DEL508-508) | > 6.30 |
| Nc1cc(C(F)(F)F)c2nc1-c1nnc(o1)[C@@](O)(C(F)(F)F)CCCCCN(Cc1ccc(OC(F)F)nc1)C2=O | CFTR in F508del/MF-HBE cells (Homo sapiens, UniProt P13569, DEL508-508) | > 6.30 |
| CC1(C)CC(N2CCCCC[C@](O)(C(F)(F)F)C3=NN=C(O3)c3nc(c(C(F)(F)F)cc3N)C2=O)C1 | CFTR in F508del/MF-HBE cells (Homo sapiens, UniProt P13569, DEL508-508) | > 6.30 |

input: Identify measured pEC50 obtained with CFTR in F508del/MF-HBE cells (Homo sapiens, UniProt P13569, DEL508-508) for Nc1cc(C(F)(F)F)c2nc1-c1nnc(o1)C(O)(C(F)(F)F)CCCCCCC2(O)C(F)(F)F (single isomer, unassigned) [Compound 26] .
output: > 6.30

input: Identify measured pEC50 obtained with CFTR in F508del/MF-HBE cells (Homo sapiens, UniProt P13569, DEL508-508) for CC(C)N1CCCCC(O)(C(F)(F)F)C2=NN=C(O2)c2nc(c(C(F)(F)F)cc2N)CC1=O (stereo not shown) .
output: < 6.00

input: Identify measured pEC50 obtained with CFTR in F508del/MF-HBE cells (Homo sapiens, UniProt P13569, DEL508-508) for N#Cc1cc(N)c2nc1C(=O)N(C1CC(F)(F)C1)CCCCCC(O)(C(F)(F)F)C1=NN=C2O1 (single isomer, unassigned) .
output: < 6.00

input: Identify measured pEC50 obtained with CFTR in F508del/MF-HBE cells (Homo sapiens, UniProt P13569, DEL508-508) for Nc1cc(C(F)(F)F)c2nc1-c1nnc(o1)[C@@](O)(C(F)(F)F)CCCCCN(Cc1cccc(C3CCC3)c1)C2=O .
output: > 6.30

input: Identify measured pEC50 obtained with CFTR in F508del/MF-HBE cells (Homo sapiens, UniProt P13569, DEL508-508) for CC(C)(c1cccc(CN2CCCCC[C@](O)(C(F)(F)F)C3=NN=C(O3)c3nc(c(C(F)(F)F)cc3N)C2=O)c1)C(F)(F)F .
output: > 6.30

input: Identify measured pEC50 obtained with CFTR in F508del/MF-HBE cells (Homo sapiens, UniProt P13569, DEL508-508) for Nc1cc(C(F)(F)F)c2nc1-c1nnc(o1)[C@@](O)(C(F)(F)F)CCCCCN(Cc1ccc(F)cc1F)C2=O .
output: > 6.30

input: Identify measured pEC50 obtained with CFTR in F508del/MF-HBE cells (Homo sapiens, UniProt P13569, DEL508-508) for Nc1cc(C(F)(F)F)c2nc1-c1nnc(o1)[C@@](O)(C(F)(F)F)CCCCCN(Cc1ccc(OC(F)F)c(F)c1)C2=O .
output: > 6.30

====

target.or.system: CFTR in F508del/MF-HBE cells (Homo sapiens, UniProt P13569, DEL508-508)
Construct: human bronchial epithelial (HBE) cells derived from CF subjects heterozygous for F508del and a minimal function CFTR mutation; endogenous in cells
assay.text: Ussing chamber assay of CFTR-mediated short-circuit currents (identification of potentiator compounds)
condition.info: potentiator incubated 18-24 hours at 37° C. in combination with 10 μM corrector, in the presence of 20% human serum, CFTR-mediated ISC
pEC50: −log10 of the molar value.
readout.type: pEC50

| compound | target.or.system | pEC50 |
| --- | --- | --- |
| CC(=O)N1CCCCCC(O)(C(F)(F)F)C2=NN=C(O2)c2nc(c(C(F)(F)F)cc2N)C1 (single isomer, unassigned) [Compound 21] | CFTR in F508del/MF-HBE cells (Homo sapiens, UniProt P13569, DEL508-508) | < 6.00 |
| Nc1cc(C(F)(F)F)c2nc1-c1nnc(o1)[C@@](O)(C(F)(F)F)CCCCCN(Cc1ccc(OCC(F)(F)F)cc1)C2=O | CFTR in F508del/MF-HBE cells (Homo sapiens, UniProt P13569, DEL508-508) | > 6.30 |

input: Indicate its recorded pEC50; the compound in question is CC1CCCCCCC(O)(C(F)(F)F)C2=NN=C(O2)c2nc1c(C(F)(F)F)cc2N (single isomer, unassigned) [Compound 18]
output: > 6.30

input: Indicate its recorded pEC50; the compound in question is Cc1c(CN2CCCCC[C@](O)(C(F)(F)F)C3=NN=C(O3)c3nc(c(C(F)(F)F)cc3N)C2=O)cccc1OC(F)(F)F
output: > 6.30

input: Indicate its recorded pEC50; the compound in question is Nc1cc(C(F)(F)F)c2nc1-c1nnc(o1)C(O)(C(F)(F)F)CCCCCCC1=NN=C2O1 (single isomer, unassigned) [Compound 33]
output: < 6.00

input: Indicate its recorded pEC50; the compound in question is COc1ccc(CN2CCCCC[C@](O)(C(F)(F)F)C3=NN=C(O3)c3nc(c(C(F)(F)F)cc3N)C2=O)cc1F
output: > 6.30

====

Documented pEC50 across a set of molecules
target.or.system: CFTR in F508del/MF-HBE cells (Homo sapiens, UniProt P13569, DEL508-508)
Construct: human bronchial epithelial (HBE) cells derived from CF subjects heterozygous for F508del and a minimal function CFTR mutation; endogenous in cells
assay.text: Ussing chamber assay of CFTR-mediated short-circuit currents (identification of potentiator compounds)
condition.info: potentiator incubated 18-24 hours at 37° C. in combination with 10 μM corrector, in the presence of 20% human serum, CFTR-mediated ISC
pEC50: −log10 of the molar value.

Worked cases, answers included:
| molecule | pEC50 |
| --- | --- |
| Nc1cc(C(F)(F)F)c2nc1-c1nnc(o1)[C@@](O)(C(F)(F)F)CCCCCN(Cc1cccc(C(F)F)c1)C2=O [Compound 241] | > 6.30 |
| C[C@H]1C[C@H](c2ccc(CN3CCCCC[C@](O)(C(F)(F)F)C4=NN=C(O4)c4nc(c(C(F)(F)F)cc4N)C3=O)cc2)C1 [Compound 183] | > 6.30 |
| CC(C)(C)Cc1ccc(CN2CCCCC[C@](O)(C(F)(F)F)C3=NN=C(O3)c3nc(c(C(F)(F)F)cc3N)C2=O)cc1 [Compound 170] | > 6.30 |
| Nc1cc(C(F)(F)F)c2nc1-c1nnc(o1)[C@@](O)(C(F)(F)F)CCCCCN(C1CC3(CNC3)C1)C2=O [Compound 99] | < 6.00 |
| Nc1cc(C(F)(F)F)c2nc1-c1nnc(o1)C(O)(C(F)(F)F)CCCCCCC2O (single isomer, unassigned) [Compound 11] | < 6.00 |

input: Indicate its recorded pEC50; the molecule in question is Nc1cc(C(F)(F)F)c2nc1-c1nnc(o1)[C@](O)(C(F)(F)F)CCC(F)(F)CCCC2=O [Compound 41]
output: > 6.30

input: Indicate its recorded pEC50; the molecule in question is CCCN1CCCCC[C@](O)(C(F)(F)F)C2=NN=C(O2)c2nc(c(C(F)(F)F)cc2N)C1=O [Compound 82]
output: > 6.30

input: Indicate its recorded pEC50; the molecule in question is Nc1cc(C(F)(F)F)c2nc1-c1nnc(o1)[C@@](O)(C(F)(F)F)CCCCCN(Cc1ccnc(OC3CCC3)c1)C2=O [Compound 270]
output: > 6.30

input: Indicate its recorded pEC50; the molecule in question is Nc1cc(C(F)(F)F)c2nc1-c1nnc(o1)[C@@](O)(C(F)(F)F)CCCCCN(Cc1ccccc1OC(F)(F)F)C2=O [Compound 141]
output: > 6.30

input: Indicate its recorded pEC50; the molecule in question is Nc1cc(C(F)(F)F)c2nc1-c1nnc(o1)[C@@](O)(C(F)(F)F)CCCCCN(CC(C1CC1)C1CC1)C2=O [Compound 251]
output: < 6.00

Values from patent US20250122218A1
